Quick reference: PBM binding z-score of the listed items.
- Test system: VDR homodimer (NR concentration 270 nM)
- Experiment Description: PBM binding z-score (relative to random genomic background probes); higher = stronger binding; sequences stand for … in GC…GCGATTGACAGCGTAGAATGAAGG
Hey, just send me the number, nothing else.

TATACAGGGTCAAAGTCCAGAGTACGAATGTCGA : 4.02
CGAACGAGGGCATGAGTTGATCGCAAATGCCGAT : 1.79
CCGACTGAGGCAAAGGTTACCATACTCAGTACGA : -0.216
AGAATGAGGTTACCAAAGATCAGAGAAACGCTTG : 0.185
GCCACTGGGGCATCAGCAGGTTACCATAACTTAA : -0.602

Please find the next sequence below.
Enquiry: Provide value of PBM binding z-score for this record tested with VDR homodimer (NR concentration 270 nM): CAAAGTAGGTCACAGAGGTCAAAGTCCGTGCGTA
Return: 6.6
